target.of.assay: hMC4-R (Homo sapiens (Human))
Sequence (P32245 whole entry): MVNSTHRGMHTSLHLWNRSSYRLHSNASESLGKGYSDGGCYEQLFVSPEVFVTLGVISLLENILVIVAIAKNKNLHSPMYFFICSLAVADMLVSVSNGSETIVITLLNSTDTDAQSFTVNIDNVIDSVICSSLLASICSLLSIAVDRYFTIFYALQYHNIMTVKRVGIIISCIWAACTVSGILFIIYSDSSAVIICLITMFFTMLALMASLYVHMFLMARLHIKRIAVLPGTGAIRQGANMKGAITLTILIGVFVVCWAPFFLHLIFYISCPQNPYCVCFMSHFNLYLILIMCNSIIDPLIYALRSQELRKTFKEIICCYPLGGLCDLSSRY
measurement.protocol: High and low density hMC4-R functional assay (cAMP, HEK293-T-REx-MC4-R cells)
Type: cell-based
measurement.parameters: 0.1 ng/mL Doxycycline (low density hMC4-R system); NDP-α-MSH = 100%; read-out: Intrinsic Activity (%)
Protocol: The cells were then dispensed into 96-well plates (BD 353916) in 198 μL (about 5×10^4) cells/well and incubated for 10 minutes at 37° C. The compound to be tested was diluted with DMSO to a final concentration of 1 mM. […] 120 μL of the 1 mM compound stock was pipetted in the second column on the plate. […] All assay samples were run in duplicate (i.e. each sample was in two low dox and two high dox plates, respectively). The plates were gently shaken and incubated for 15 minutes at 37° C.
Positions of bridges follow the written chain, without caps; N, C: chain ends. Non-standard residues stand in square brackets, D forms with d. Residues, ends and D or L forms follow the SMILES beside them. dPhe(3-Cl) = N[C@H](Cc1cccc(Cl)c1)C(=O)O; Orn = NCCC[C@H](N)C(=O)O

compound	Emax / %
CC(=O)N[C@@H](CCCNC(=N)N)C(=O)N[C@H]1CCC(=O)NCCC[C@@H](C(N)=O)NC(=O)[C@H](Cc2c[nH]c3ccccc23)NC(=O)[C@H](CCCNC(=N)N)NC(=O)[C@@H](Cc2ccccc2Cl)NC(=O)[C@H](Cc2cccc(C(N)=O)c2)NC1=O [Example 48]	6
CC(=O)N[C@@H](CCCNC(=N)N)C(=O)N[C@H]1CCC(=O)NCCC[C@@H](C(N)=O)NC(=O)[C@H](Cc2c[nH]c3ccccc23)NC(=O)[C@H](CCCNC(=N)N)NC(=O)[C@@H](Cc2cccc(Cl)c2)NC(=O)[C@H](CCCCN)NC1=O [Example 100] (Ac-REK[dPhe(3-Cl)]RW[Orn]-NH2; lactam 2-7)	27
